Reference source for all entries: ChEMBL document CHEMBL2073931

molecular target: Solute carrier family 22 member 6 (Rattus norvegicus); assay: TP_TRANSPORTER: inhibition of MTX uptake in Xenopus laevis oocytes
Sequence (O35956 whole entry): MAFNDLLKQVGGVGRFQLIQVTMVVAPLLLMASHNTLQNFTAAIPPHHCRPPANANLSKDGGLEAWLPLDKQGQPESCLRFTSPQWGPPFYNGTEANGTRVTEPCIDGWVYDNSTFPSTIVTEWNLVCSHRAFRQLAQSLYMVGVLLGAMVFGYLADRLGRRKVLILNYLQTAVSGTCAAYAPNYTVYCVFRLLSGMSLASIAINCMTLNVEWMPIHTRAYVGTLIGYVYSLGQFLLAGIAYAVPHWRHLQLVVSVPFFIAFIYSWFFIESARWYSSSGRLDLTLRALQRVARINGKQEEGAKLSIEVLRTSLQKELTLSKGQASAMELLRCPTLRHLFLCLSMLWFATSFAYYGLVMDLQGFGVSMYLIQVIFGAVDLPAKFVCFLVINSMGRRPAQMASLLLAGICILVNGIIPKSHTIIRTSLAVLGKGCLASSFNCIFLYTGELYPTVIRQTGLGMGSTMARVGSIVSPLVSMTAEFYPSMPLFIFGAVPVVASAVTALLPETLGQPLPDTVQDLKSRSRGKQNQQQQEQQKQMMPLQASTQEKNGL
pKi: −log10 of the molar value.

{"sample smiles": "COc1ccc2c(c1)c(CC(=O)O)c(C)n2C(=O)c1ccc(Cl)cc1", "pKi": 5.38}
